experiment: NCI Yeast Anticancer Drug Screen. Data for the rad50 strain (AID 155);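 also: 0% = growth of vehicle-only cultures of the same strain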; conditions: S. cerevisiae rad50 strain growth inhibition; at 50.0 µM; active compounds read high
About 79,000 compounds went through this panel and 15% of them were active in at least one assay; those are over-represented in the sample as a whole. Calls of active or inactive are those of the source. Rule as the data show it: active = growth inhibition above about 70%; inactive = the rest. Where a SMILES comes first, the peptide text is derived from it. The star is where a group is joined. ONb = O=[N+]([O-])c1ccc(CO*)cc1; Boc = CC(C)(C)OC(=O)*

COMPOUND: NC1C(=O)Nc2ccccc21 (stereo not given)
growth inhibition: 1.85% (inactive)
//
COMPOUND: O=C(Nc1c[nH]c(=O)[nH]c1=O)Oc1ccccc1
growth inhibition: -5.65% (inactive)
//
COMPOUND: COc1cccc2c1[C@]1(O)C(O)CCCC21 (stereo not given in full)
growth inhibition: -43.6% (inactive)
//
COMPOUND: CC1(C)CNC[C@](C)(OCCCO[C@@]2(C)CNCC(C)(C)NC2=O)C(=O)N1
growth inhibition: -11.4% (inactive)
//
COMPOUND: CC(Cc1ccccc1)Nc1ncnc2c1ncn2C1OC(CO)CC1O (stereo not given)
growth inhibition: 7.5% (inactive)
//
COMPOUND: O=C(O)CCc1ccncc1
growth inhibition: 2.25% (inactive)
//
COMPOUND: CN1Cc2ccccc2[C@H]2C(c3ccccc3)=NN(c3ccccc3)[C@H]21
growth inhibition: 39.6% (inactive)
//
COMPOUND: CC(C)CC(NC(=O)OC(C)(C)C)C(=O)NC(CCC(=O)OCc1ccc([N+](=O)[O-])cc1)C(=O)OCc1ccc([N+](=O)[O-])cc1 (stereo not drawn) (Boc-Leu-Glu(ONb)-ONb; configuration not given here)
growth inhibition: -9.3% (inactive)
//
COMPOUND: CC(=O)NC(=O)CCc1ccccc1
growth inhibition: -12.2% (inactive)
//
COMPOUND: N#CC(C(=O)CCc1nc2ccccc2[nH]1)c1nc2ccccc2s1 (stereo not given)
growth inhibition: 6.75% (inactive)

###

Experiment: NCI Yeast Anticancer Drug Screen. Data for the bub3 strain (AID 167)
Settings: S. cerevisiae bub3 mutant strain, at 50.0 µM, active compounds read high
Protocol: Growth inhibition of yeast strains with defined genetic alterations is measured as a screen for potential anti-cancer activity. Selected strains with alterations in DNA damage repair or cell cycle control were exposed to compounds and growth inhibition was measured relative to vehicle treated controls. The strain used in this assay is bub3
Compounds without any hit were thinned out: in the full panel of roughly 79,000, 15% have a hit.
In this section we review reported growth inhibition values for a set of compounds.

COMPOUND: NC(=O)NC(=O)N/N=C/c1ccccc1
growth inhibition [%]: 7.6
//
COMPOUND: COC(=O)N1C2c3ccccc3C(c3ccccc32)N1C(=O)OC
growth inhibition [%]: 32.8
//
COMPOUND: COC(=O)c1ccc(N(C)CC/C(CNc2nc(N)[nH]c(=O)c2[N+](=O)[O-])=N\NC(N)=O)cc1
growth inhibition [%]: -7.55
//
COMPOUND: COc1ccc(OC)c(NC(=O)CCC/C(CC(=O)c2ccc(O)c(OC)c2)=N\Nc2ccc([N+](=O)[O-])cc2)c1
growth inhibition [%]: -6
//
COMPOUND: CCN1CCC(O)(C(C(=O)O)c2ccccc2)CC1 (stereo not drawn)
growth inhibition [%]: -38.7
//
COMPOUND: CNCC(=O)NC(CO)C(=O)NC(CO)C(=O)NC1C(C(N)=O)OC(n2ccc(N)nc2=O)C(O)C1O (stereo not drawn)
growth inhibition [%]: 23.9
//
COMPOUND: CNc1nc(Cl)nc2c1nc(SC)n2-c1ccccc1
growth inhibition [%]: 18.2
//
COMPOUND: CC1(C)CC(C)(Br)C(Br)C(=O)C1C(O)(C(F)(F)F)C(F)(F)F (stereo not drawn)
growth inhibition [%]: 99.6
//
COMPOUND: CNC1C(O)C(OC2C(N)CC(N)C(OC3OC(CN)=CCC3N)C2O)OCC1(C)O (stereo not drawn)
growth inhibition [%]: -25.8
//
COMPOUND: CCNc1ncnc2sc(SCc3ccccc3)nc12
growth inhibition [%]: -31.1
//
COMPOUND: CCCCS/C=C1\CC2OC(=O)C3(C)CCCC(C)(C1=O)C23 (stereo not drawn)
growth inhibition [%]: 11.5
//
COMPOUND: O=[N+]([O-])c1ccc(Oc2ccccc2-c2ccccc2)c([N+](=O)[O-])c1
growth inhibition [%]: 8.2
//
COMPOUND: O=C(Nc1ccc2c(c1)C(O)c1ccccc1-2)C(F)(F)F (stereo not drawn)
growth inhibition [%]: 6.85
//
COMPOUND: O=Cc1ccccc1CCn1c(=O)c2cc3c(=O)n(CCc4ccccc4C=O)c(=O)c3cc2c1=O
growth inhibition [%]: -4.35
//
COMPOUND: CCC1=C(C)C(=O)OC1n1ccc(=O)[nH]c1=O (stereo not drawn)
growth inhibition [%]: -5
//
COMPOUND: O=S(=O)(O)c1ccccc1/C=N\N=C\c1ccccc1S(=O)(=O)O
growth inhibition [%]: -6.4
//
COMPOUND: O=C1CNC(=O)N1c1ccccc1
growth inhibition [%]: 5.65
//
COMPOUND: NC(=O)CC(NC(=O)C(F)(F)F)C(=O)O (stereo not drawn)
growth inhibition [%]: -14.2
//
COMPOUND: O=C(Nc1ccccc1)SC1CCCCC1
growth inhibition [%]: 3.8
//
COMPOUND: O=C(COc1cc(Cl)ccc1Cl)NCc1ccc(Cl)cc1
growth inhibition [%]: 34.1
//
COMPOUND: CN(C)c1ccc(C=C2C(=O)OC(C)(C)OC2=O)cc1Br
growth inhibition [%]: -17.6
//
COMPOUND: O=[N+]([O-])c1nccn1CCCN=c1c2ccccc2n(O)c2ccccc12
growth inhibition [%]: -12.7
//
COMPOUND: NCC(=O)N[C@H]1c2ccsc2/C(=N/O)[C@H]1O
growth inhibition [%]: -10.2
